assayedSystem: T1, human C-KIT-Fc (human, UniProt P10721 26-524)
T1 construct: also called biotinylated human C-KIT-Fc; not shown: Fc part not described
methodNotes: HTRF competition vs Tb-h37M IgG1
endpointName: IC50 (µg/mL)

binder	endpointName	outputUnit	quantitativeReadout
MH5.35 (antibody, IgG1, V domains shown, IgG1; also called C-KIT-MH5.35) VH: QVQLVQSGAEVKKPGASVKVSCKASGYTFTNYYMNWVRQAPGQGLEWMGRIYPASGNTYYAQKFQGRVTMTRDTSTSTVYMELSSLRSEDTAVYYCARGVWYFDTWGQGTLVTVSS VL: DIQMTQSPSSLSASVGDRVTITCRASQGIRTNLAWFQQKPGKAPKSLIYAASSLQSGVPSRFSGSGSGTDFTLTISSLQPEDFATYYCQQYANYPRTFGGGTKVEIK	IC50	µg/mL	2.05
MH5.2 (antibody, IgG1, V domains shown, IgG1; also called C-KIT-MH5.2) VH: QVQLVQSGAEVKKPGASVKVSCKASGYTFTDFYMNWVRQAPGQGLEWMGRIYPGTGNTYYAQKFQGRVTMTRDTSTSTVYMELSSLRSEDTAVYYCARGVWYYDYWGQGTLVTVSS VL: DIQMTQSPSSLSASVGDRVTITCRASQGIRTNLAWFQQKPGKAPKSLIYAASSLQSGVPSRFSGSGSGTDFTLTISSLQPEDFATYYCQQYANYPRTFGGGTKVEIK	IC50	µg/mL	0.272
MH5.1 (antibody, IgG1, V domains shown, IgG1; also called C-KIT-MH5.1) VH: QVQLVQSGAEVKKPGASVKVSCKASGYTFTNYYMNWVRQAPGQGLEWMGRIYPGTGNTYYAQKFQGRVTMTRDTSTSTVYMELSSLRSEDTAVYYCARGVWYYDYWGQGTLVTVSS VL: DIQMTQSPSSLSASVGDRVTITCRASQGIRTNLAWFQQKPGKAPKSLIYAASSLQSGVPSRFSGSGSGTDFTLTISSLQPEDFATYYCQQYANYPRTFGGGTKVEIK	IC50	µg/mL	0.684
